Entries and their % Inhibition (BIAcore)
# TARGET_ENTITY: T1, dimeric hIL-4R-hFc (human, UniProt P24394 26-232)
# T1 construct: also called hIL-4R-Fc; not shown: human Fc (hFc)
# T1 sequence: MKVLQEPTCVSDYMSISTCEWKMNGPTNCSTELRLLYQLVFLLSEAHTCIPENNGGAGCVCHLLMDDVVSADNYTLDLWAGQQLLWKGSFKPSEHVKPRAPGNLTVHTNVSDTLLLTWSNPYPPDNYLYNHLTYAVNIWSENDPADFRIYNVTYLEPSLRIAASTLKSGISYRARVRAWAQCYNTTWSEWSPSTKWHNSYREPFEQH
# ASSAY_INFO: SPR; reduction of hIL-4 (50 nM) binding to captured hIL-4R-hFc after antibody; competitor hIL-4
The figure you give is taken to be in %; do not add the unit.

Guide cases for % Inhibition (BIAcore), answers given:
{"BINDER": "VX 3F7-6 (antibody, V domains shown, 395/397; 399/401 without saying which was assayed; Apparently tested with mouse constant region (anti-mouse IgG capture/detection)) VH: EVQLVESGGGLVQPGGSLRLSCAASGFTFSSFWMTWVRQAPGKGLEWVANIKQDGSEKYYVDSVKGRFTISRDNAKNSLYLQMNSLRAEDTAVYYCARDPGRTMVRGGIRYYYGMDVWGQGTTVTVSS VL: DIQMTQSPSSVSASVGDRVTISCRASQGVSSWLAWYQQKPGNAPKLLISAASSIQSGVPSRFSGSGSGTDFTLTISSLQPEDFATYYCQQANSFPLTFGGGTKVEIK", "MEASURED_METRIC": "% Inhibition (BIAcore)", "RECORDED_MEASUREMENT": 86}
{"BINDER": "VAB 16F3-1 (antibody, V domains shown, Apparently tested with mouse constant region (anti-mouse IgG capture/detection)) VH: QVQLVQSGAEVKKPGASVKVSCKASGYTFNSYGISWVRQAPGQGLEWMGWIRTYNGNTNYAQKLQGRVTMTTDTSTSTAYMELRSLRSDDTAVYYCARDEARIVVAGTTPYYYGMDVWGQGTTVTVSS VL: DIQMTQSPSSVSASVGDRVTITCRASQDISIWLAWYQQSPGKAPKLLINVASRLQSGVPSRFSGSGSGTDFTLTINSLQPEDFVTYYCQQANSFPITFGQGTRLATK", "MEASURED_METRIC": "% Inhibition (BIAcore)", "RECORDED_MEASUREMENT": 97}
{"BINDER": "VAB 8G10-1 (antibody, V domains shown, Apparently tested with mouse constant region (anti-mouse IgG capture/detection)) VH: QVQLVQSGPEVKKPGASVKVSCKASGYTFTNYGISWVRQAPGQGLEWMGWISVYNGNINYAQKLQGRVTMTTDTSTSTAYMDLRSLRSDDTAVYYCARGSGYDFDYWGQGTLVTVSS VL: AIQMTQSPSSLSASVGDRVTITCRASQDIRNALGWYQQKPGKAPKLLIYAASSLQSGVPSRFSGSASGTDFTLTISSLQPEDFAAYYCLQDYNYPYTFGQGTKLEIK", "MEASURED_METRIC": "% Inhibition (BIAcore)", "RECORDED_MEASUREMENT": 74}

Challenge: Query (binder): VAB 15C8-17 (antibody, V domains shown, Apparently tested with mouse constant region (anti-mouse IgG capture/detection)) VH: QVQLVESGGGLVQPGGSLRLSCAVSGFTISDHYMSWIRQAPGKGLEWISYISSSGSKIYYADSVKGRFTISRDNAKNSLFLQMNSLRAEDTAVYYCARTRQLVGDYWGQGTLVTVSS VL: DIQLTQSPSFLSASVGDRVTITCWASQGISSYLAWYQQKPGKAPKLLIFAASTLQSGVPSRFSGSGSGTEFTLTISSLQPEDFATYYCQQLNSYPLTFGGGTKVEIR ; field requested: % Inhibition (BIAcore)
Response given: 97

Challenge: // returns reported % Inhibition (BIAcore) for input VAB 10C1-5 (antibody, V domains shown, Apparently tested with mouse constant region (anti-mouse IgG capture/detection)) VH: QVQLVETGGDLVRPGGSLRLSCTASGFTLSDYYMSWIRQAPGKGLEWVSYIRRSGNTIYYADSVKGRFTISRDNAKNSLYLQMNSLRAEDTAVYYCARGGDWADVWGQGTTVTVSS VL: DIQMTQSPSSLSASVGDRVTITCRASQGISIYLAWFQQKPGKAPKSLIYAASSLQRGVPSKFSGSGSGTDFTLTISSLQPEDFATYYCQQYNSYPYTFGQGTKLEIK
Response given: 93

Challenge: Quick one: % Inhibition (BIAcore) for VAB 3B4-10 (antibody, V domains shown, Apparently tested with mouse constant region (anti-mouse IgG capture/detection)) VH: QVHLVQSGAEVKKPGASVKVSCKASGYTFTNYGIGWVRQAPGQGLEWMGWISIYNGNTNYAQRLQGRVTMTTDTSTSTAFMDLRSLKSDDTAVYYCARGSGYNFDHWGQGTLVTVSS VL: AIQMTQSPSSLSASVGDRVTITCRASQGIRNDLGWYQQIPGKAPKLLIYAASSLQSGVPSRFSGSGSGTDFTLTISNLQPEDFAVYFCLQDNTYPYTFGQGTNLESK ?
Response given: 72

Challenge: Recorded % Inhibition (BIAcore) of VAB 7B9-3 (antibody, V domains shown, Apparently tested with mouse constant region (anti-mouse IgG capture/detection)) VH: QVQLVQSGAEVKKPGASVKVSCKDSAYTFNRYGISWVRQAPGQGLEWMGWISAYTGNTVYAQKLQGRVTMTTDNSTSTAYMELRSLRSDDTAVYYCARDKSIFGVVRGFDYWGQGTLVTVSS VL: EIVMTQSPVTLSLSPGERATLPCRASQSVSSSLAWYQQKAGQSPRLLIYGASTRATGIPARFSGSGSGTEFTLTISNLQSEDFAVYYCQQYNNWPLTFGGGTKVEIK , please.
Response given: 96

Challenge: Given the binder VAB 6C10-14 (antibody, V domains shown, Apparently tested with mouse constant region (anti-mouse IgG capture/detection)) VH: QVQLVQSGAEVKKPGASVKVSCKASGYTFTNYGLTWVRQAPGRGLEWMGWISVYNGNTNYAQTLKGRVTMTTDTSTSTAYMELKSLRSDDTAVYYCARGSGYDFDYWGQGTLVTVSS VL: AIQMTQSPSSLSASVGDRVAITCRASQDIRNDLGWYQQKPGKAPKLLIHTASSLQSGVPSRFSGSGSGTDFTLTISNLQPEDFATYYCLQDNSYPYTFGQGTKLEIN , what is its reported % Inhibition (BIAcore)?
Response given: 79

Challenge: Which value of % Inhibition (BIAcore) has been reported for VAK8G11-13 (antibody, V domains shown, Apparently tested with mouse constant region (anti-mouse IgG capture/detection)) VH: QVRLVESGGGVVQPGGSLRLSCAASGFIFRSYGMHWVRQAPGRGLEWVAVISYDGSKTFYVDSVKVRFTISRDNSKNTLYLEMNSLRVDDTAVYFCVKEGRSGSWFDPWGQGTLVAVSS VL: DIHMTQSPSSLSASVGDRVTITCRASQAINNFLAWFQQKPGKTPKSLIFATSSLQSGVPSRFSGSGSGTDFTLTISSLQPEDFATYYCQQYNSHPWTFGQGTKVEIK in the records?
Response given: 95

Challenge: Requested read-out: % Inhibition (BIAcore). Entry: VAB 11G8-1 (antibody, V domains shown, Apparently tested with mouse constant region (anti-mouse IgG capture/detection)) VH: QVQLVQSGAEVKKPGASVKVSCKASGYTFTNYGISWVRQAPGQGLEWMGWISVYNGHTNYAQKLQGRVTMTTDTSTSTAYMELRSLRSDDTAVYYCARGSGYDFDSWGQGTLVTVSS VL: AIQMTQSSSSLSASVGDRVTITCRASQAIRNALGWYQQKPGKAPKVLIYAASSLQSGIPSRFSGSGSGTDFTLTISSLQPEDFATYYCLQDYDYPYTFGQGTKLEIK
Response given: 77
